System: HCC-2998 colon
Assay: NCI tumour cell line growth inhibition, 48 h
measured quantity: TGI

> print(dat)
                                    molecule  measured.quantity    result
 1  COc1cccc2c(=O)oc(-c3ccc(C(C)(C)C)cc3)nc12                TGI   33.5 µM
 2  NC1=NCC(CN2CCOCC2)O1 (configuration not stated)                TGI  > 100 µM
 3  NS(=O)(=O)c1cc(Cl)c(NC(=S)NC(=O)Nc2ccc(Cl)c(Cl)c2)c(Cl)c1                TGI  > 100 µM
 4  COC1=CC(=O)C(C2CC(=O)c3c(O)cc(O)cc3O2)=CC1=O (configuration not stated)                TGI   32.1 µM
 5  COP(=O)(/C=C/c1cc(C(=O)OCc2ccccc2)n(S(=O)(=O)c2ccccc2)c1)OC                TGI  > 100 µM
 6  CC[C@H](Nc1ncnc2nc[nH]c12)c1oc2ccccc2c(=O)c1-c1cccc(F)c1                TGI  > 100 µM
 7  O=C(O)c1ccccc1CC1Cc2ccccc2C1=O (configuration not stated)                TGI  > 100 µM
 8  CC(=O)/C(=C\c1cccc([N+](=O)[O-])c1)C(=O)Nc1ccccc1C                TGI  > 100 µM
 9  O=C1NCC2(CCN(CCCC3(c4ccc(F)cc4)OCCO3)CC2)N1c1ccccc1                TGI  > 100 µM
10                CS(=O)(=O)OCC(CCl)(CCl)CCl                TGI  > 100 µM
11  CN1CCN(CCCn2c(=O)c3sc4ncccc4c3n3nnc(-c4ccccc4)c23)CC1                TGI   13.4 µM
12  Cn1c2ccccc2c2cc(-c3ccccc3)c3c(c21)C(=O)c1ccccc1C3=O                TGI  > 100 µM
13  CC(=N/N=C/c1ccccn1)/C(C)=N/N=C(C)/C(C)=N/N=C(C)/C(C)=N/N=C(C)/C(C)=N\N=C\c1ccccn1                TGI  > 100 µM
14  O=C(/C=C\c1ccc(Cl)c(Cl)c1)c1ccc(Cl)cc1Cl                TGI   58.6 µM
15  CCN(CC)CCN(C(=Nc1ccccc1)N1CCOCC1)c1ccccc1                TGI  > 100 µM
16  CN(C)c1ccc(C(=N/N=C2\C(=O)Nc3ccccc32)c2ccc(N(C)C)cc2)cc1                TGI   17.5 µM
17  C=C1C(=O)O[C@H]2[C@H]1CC/C(COC(=O)c1c[nH]c3ccccc13)=C\CC[C@@]1(C)O[C@@H]21                TGI   1.08 µM
18  CSC(=S)N/N=C(\C)c1ccc(S(=O)(=O)N(C)c2ccccc2)cc1                TGI  > 100 µM
19           O=C(Nc1nccs1)c1c(O)nc2sccn2c1=O                TGI   > 10 µM
20        CCC1(CC)C(=O)NN(C(=O)c2ccccc2)C1=O                TGI  > 100 µM
21  COC(OC)C(C)CC(=O)N(C)C (configuration not stated)                TGI  > 100 µM
22  CCN(CC)CCn1c(=O)c2cccnc2n2c3c(=O)n(C)c(=O)n(C)c3nc12                TGI  > 100 µM
